test: log P (HPLC/MS data of the preparation examples); details: LC-MS, method [c]: pH 7.8 with 0.001 molar ammonium hydrogen carbonate solution in water, linear gradient 10% to 95% acetonitrile
I'd appreciate it if you could supply log p values for the items below.

Each of the following entries comes with a recorded value; kindly state log p for each.
1. Cn1ccnc1C(=NOCc1nccc(N)n1)c1cccs1
2. Cn1ccnc1C(=NOCc1nccc(N)n1)c1ccccc1
3. Cn1ccnc1C(=NOCc1cccc(N)n1)c1ccccc1

1: 1.13^[c]; 2: 1.42^[c]; 3: 1.89^[c];

For the molecule Cn1ccnc1C(=NOCc1cccc(N)n1)c1cccs1 , what log p is on record?
1.74^[c]

----------
test: log P (HPLC/MS data of the preparation examples); details: HCOOH (formic acid)
MEASURED_PROPERTY: chromatographic logP
One number for each entry.

| COMPOUND | chromatographic logP |
| --- | --- |
| Cn1cncc1C(=NOCc1csc(N)n1)c1cccs1 [Example 495] | 0.22 |
| O=C(c1ccsc1)c1snc(Cl)c1Cl | 3.31 |
| Cn1cncc1C(=O)c1ccsc1 | 0.43 |

Go through the items and report each one's chromatographic logP.
1. Cc1ncc(C(=O)c2ccccc2)n1C
2. Cn1cncc1C(=NOCc1csc(N)n1)c1ccsc1 [Example 496]
3. Cn1cncc1C(=NOCc1cccc(N)n1)c1ccsc1 [Example 493]
4. Cc1nocc1C(=NOC(=O)c1ccccn1)c1cccs1
5. CON(C)C(=O)c1ccsc1
6. Cc1cnc(C)c(C(=NO)c2ccccc2)n1
7. Cc1cnc(C)c(C(C#N)c2ccccc2)n1 (stereo not shown)
8. Cc1nocc1C(=O)c1cccs1

0.56
0.45
0.39
2.25
1.3
1.7
2.28
2.2

// for each compound in input: emit chromatographic logP
1. Cc1cnc(C)c(C(=O)c2ccccc2)n1
2. CON(C)C(=O)c1cccs1

2.18
1.44

----------
test: log P (HPLC/MS data of the preparation examples); conditions: LC-MS, method [b]: pH 2.7 with 0.1% formic acid in water and acetonitrile, linear gradient 10% to 95% acetonitrile
MEASURED_PROPERTY: log p

State recorded log p for all listed compounds.
1. Cn1ccnc1C(=NOCc1cccc(NC(=O)Cc2ccccc2)n1)c1cccs1 [Example 414]
2. Cn1ncnc1C(=NOCc1cccc(N)n1)c1cccs1 [Example 391]
3. C=CCCOC(=O)Nc1cccc(CON=C(c2ccccc2)c2ncnn2C)n1 [Example 305]
4. CCCCCOC(=O)Nc1cccc(CON=C(c2ccccc2)c2ocnc2C)n1 (single isomer, unassigned) [Example 318]
5. COC(C(=O)Nc1cccc(CON=C(c2cccc(F)c2)c2nccn2C)n1)c1ccccc1 (stereo not drawn) [Example 349]

2.05^[b]
0.82^[b]
3.21^[b]
4.34^[b]
2.42^[b]

Quick batch: log p for everything below.
1. CC(C)CC(=O)Nc1ccnc(CON=C(c2ccccc2)c2cncn2C)n1 [Example 112]
2. Cn1ncnc1C(=NOCc1nccc(NC(=O)C(C)(C)C)n1)c1cccs1 [Example 407]
3. Cc1ccccc1C(=NOCc1cccc(NC(=O)Cc2ccccc2)n1)c1ncnn1C [Example 30]
4. Cn1nncc1C(=NOCc1nccc(N)n1)c1ccccc1 [Example 70]

1: 1.99^[b]; 2: 2.59^[b]; 3: 3.11^[b]; 4: 0.96^[b]

----------
assay: log P (HPLC/MS data of the preparation examples); conditions: HCOOH (formic acid)
MEASURED_PROPERTY: chromatographic logP
Answers are plain numbers.

Solved cases (5 shown):
| CPD_SMILES | chromatographic logP |
| --- | --- |
| Cn1cncc1C(=O)c1ccccc1 | 0.79 |
| Cn1cncc1C(=NOCc1cccc(N2C(=O)c3ccccc3C2=O)n1)c1cccs1 | 1.66 |
| CON(C)C(=O)c1snc(Cl)c1Cl | 1.66 |
| Cn1ccnc1C(=NO)c1ccccc1 | 0.24 |
| Cc1nocc1C(=NO)c1cccs1 | 1.75 |

// batch mode: one chromatographic logP value per listed entry
1. Cn1cncc1C(=O)c1cccs1
2. Cc1ncc(C(=NO)c2ccccc2)n1C
3. Cn1ccnc1C(=O)c1ccccc1
4. Cn1c(C(=NOCc2nccc(N(C(=O)C3CC3)C(=O)C3CC3)n2)c2ccccc2)cnc1C(=O)C1CC1
5. Cn1cncc1C(=NO)c1cccs1
6. ON=C(c1ccsc1)c1snc(Cl)c1Cl

[0.52, 0.43, 1.38, 3.73, 0.45, 3.04]

Lab note: each compound below needs its chromatographic logP filled in.
1. Cn1cncc1C(=NO)c1ccccc1
2. Cn1cncc1C(=NO)c1ccsc1

0.41
0.21
